Test system: Escherichia coli K-12 BW25113;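 also: Wild-type cells incubated without shaking, value is the mean of two biological replicates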
Procedure Details: relative growth (OD600 normalised to plate interquartile mean) (fraction); higher = less growth inhibition, active = 0.2 or less
Test Conditions: 50 µM; LB; incubation time: overnight (16-24 h)
About 220 (0.56%) of roughly 39,000 compounds showed activity. This excerpt belongs to a sample that is enriched for actives.
Outcome field: choose from 1 for active, -1 for inactive

q: What outcome does the record of this test show for CC1=C(C(=O)O)N2C(=O)C(NC(=O)C(N)c3ccc(O)cc3)C2SC1 (stereo not given) ?
a: -1

q: What outcome does the record of this test show for `CC1=C(C(=O)O)N2C(=O)[C@@H](NC(=O)[C@H](N)C3=CCC=CC3)[C@H]2SC1` ?
a: -1

q: What outcome does the record of this test show for `Nc1ccccc1OCc1ccccc1` ?
a: -1

q: What outcome does the record of this test show for NCCC(O)C(=O)NC1CC(N)C(OC2OC(CN)C(O)C(O)C2O)C(O)C1OC1OC(CO)C(O)C(N)C1O.O (stereo not given) ?
a: 1

q: What outcome does the record of this test show for `NC[C@H]1O[C@H](O[C@H]2[C@H](O[C@@H]3O[C@H](CO)[C@@H](O)[C@H]3O)[C@@H](O)[C@H](N)C[C@@H]2N)[C@H](N)[C@@H](O)[C@@H]1O` ?
a: -1

q: What outcome does the record of this test show for `NCC[C@H](O)C(=O)N[C@@H]1C[C@H](N)[C@@H](O[C@H]2O[C@H](CN)[C@@H](O)[C@H](O)[C@H]2O)[C@H](O)[C@H]1O[C@H]1O[C@H](CO)[C@@H](O)[C@H](N)[C@H]1O` ?
a: 1

q: What outcome does the record of this test show for CCN1CCN(C(=O)NC(C(=O)NC2C(=O)N3C(C(=O)O)=C(CSc4nnnn4C)CSC23)c2ccc(O)cc2)C(=O)C1=O (stereo not given) ?
a: 1

q: What outcome does the record of this test show for `Cc1cc(C)n(CCNC(=O)[C@H]2CCCN(c3cccc4c3C(=O)N(Cc3ccc5c(c3)OCO5)C4=O)C2)n1` ?
a: -1

q: What outcome does the record of this test show for NCC1OC(OC2C(CO)OC(OC3C(O)C(N)CC(N)C3OC3OC(CN)C(O)C(O)C3N)C2O)C(N)C(O)C1O.O=S(=O)(O)O.O=S(=O)(O)O.O=S(=O)(O)O (stereo not given) ?
a: -1

q: What outcome does the record of this test show for CON=C(C(=O)NC1C(=O)N2C(C(=O)O)=C(C[N+]3(C)CCCC3)CSC12)c1csc(N)n1.[Cl-] (stereo not given) ?
a: 1
